Values were extracted from PubChem BioAssay (NCI).

# Test system: 786-0 renal
# experiment description: NCI-60 one-dose screen, 48 h
# experimental setup: 10 µM unless noted
# Procedure: Cells are grown in 96 well plates and exposed to the test compound for 48 hours. Compounds are tested at a single concentration, which is 10^-5 M for most compounds. The reported endpoint is percent growth (GI% or GIPRCNT), where numbers from 0 - 100% represent growth inhibition, and numbers from -100% - 0 represent cell death. For example, a value of 40 represents 60% growth inhibition. A value of 0 means no net growth occurred over the course of the experiment. […]
Compounds without any hit were thinned out: in the full panel of roughly 83,000, 20% have a hit. Active and inactive are the calls of the source. The calls were made as follows: active = growth percent below 10; inactive = the rest.
Outcome codes: 1 = active, -1 = inactive

{"compound": "CCn1cc(C(=O)N/N=C/c2ccccc2)c(=O)c2cc(F)c(N3CCNC(C)C3)c(F)c21 (stereo not given)", "label value": 1}
{"compound": "CS(=O)(=O)c1ccc(-c2nc3ccccc3n2CC(=O)N/N=C/c2ccccc2)cc1", "label value": -1}
{"compound": "CC1(C)CC(=O)C2=C(C1)C(c1ccc(Cl)cc1)n1ncc(C#N)c1N2 (stereo not given)", "label value": -1}
{"compound": "c1ccc(Cn2cc3c(c2-c2ccccc2)CCc2cnoc2-3)cc1", "label value": -1}
{"compound": "O=C(Nc1cccnc1Nc1ccccc1)c1cn(Cc2cccc(Oc3ccccc3)c2)nn1", "label value": -1}

* * *

# System: SNB-19 CNS
# experiment description: NCI-60 one-dose screen, 48 h (100 = growth as untreated, 0 = no growth, -100 = all killed)
# experimental setup: 10 µM unless noted
About 83,000 compounds went through this panel and 20% of them were active in at least one assay; those are over-represented in the sample as a whole. Calls of active or inactive are those of the source. How the source made its calls: active means growth percent below 10; inactive means the rest.

{"smiles text": "COc1cc(Cc2cc(OC)c(O)c(OC)c2)cc(OC)c1O", "growth": "102% (inactive)"}
{"smiles text": "CCOC(=O)C#Cc1c(C(=O)OCC)nnn1[C@@H]1O[C@H](COC)[C@@H](OC)[C@H]1OC", "growth": "97.9% (inactive)"}
{"smiles text": "Cc1sc2nc(NCCN)[nH]c(=O)c2c1C", "growth": "87.5% (inactive)"}
{"smiles text": "Clc1ccc(Nc2nnc(CNc3ccccc3)c3ccccc23)cc1", "growth": "25.9% (inactive)"}
{"smiles text": "COc1cc(/C=N/NC(=O)c2ccc(-n3cc(-c4ccccc4)nn3)cc2)cc(OC)c1OC", "growth": "58.9% (inactive)"}

* * *

# Test system: HCT-15 colon
# experiment description: NCI-60 one-dose screen, 48 h
# experimental setup: 10 µM unless noted
The panel holds about 83,000 compounds, 20% with a hit somewhere; the sample as a whole holds those more often. Calls of active or inactive are those of the source. Rule for the calls: active = growth percent below 10; inactive = the rest.
Classes used: true for active, false for inactive

{"molecule": "COC(=O)/C=C1/SC(=NCc2ccccc2)N(CCc2c[nH]c3ccccc23)C1=O", "label value": "false"}
{"molecule": "O=c1cc(C(F)(F)F)c2cc(-c3cc4ccccc4c(=O)o3)c(O)cc2o1", "label value": "false"}
{"molecule": "CS(=O)(=O)Nc1cc(-c2ccc3ncnc(Nc4ccc5c(cnn5Cc5ccncc5)c4)c3c2)cnc1Cl", "label value": "false"}
{"molecule": "Ic1ccc(Nc2nc3nonc3nc2Nc2ccc(I)cc2)cc1", "label value": "true"}
{"molecule": "CCn1cc(C(=O)N/N=C/c2ccccc2)c(=O)c2cc(F)c(N3CCNC(C)C3)c(F)c21 (centres undefined)", "label value": "true"}
{"molecule": "COC(=O)c1ccc2cc(OC)c(OC)cc2c1", "label value": "false"}
{"molecule": "O=S(=O)(NCCNc1nccc(-c2c(-c3ccc(F)c(O)c3)nc3sccn23)n1)c1ccc(Cl)cc1", "label value": "false"}
{"molecule": "C=CN(C(=O)N1CCN(c2cc3c(cc2F)c(=O)c(C(=O)O)cn3C2CC2)CC1)c1nc(-c2ccc(Cl)cc2)cs1", "label value": "false"}
{"molecule": "Cn1cc(-c2csc(-c3cn(C)c4ccccc34)n2)c2cnccc21", "label value": "true"}
